experiment: in vivo; conditions: male, Wistar, rat, plasma, other: p.o. and i.v.
Measured Property: half-life

Input: Return the recorded half-life value; entry: CN(C)C(=O)N[C@H]1CC[C@H](CCN2CCN(c3cccc(Cl)c3Cl)CC2)CC1
Output: 2 to 3 h

src = paper PMC6754336
